molecules and their reported IC50
- ASSAYED_SYSTEM: sigma-2 receptor (Mus musculus, UniProt Q8VD00)
- Sequence (Q8VD00 whole entry): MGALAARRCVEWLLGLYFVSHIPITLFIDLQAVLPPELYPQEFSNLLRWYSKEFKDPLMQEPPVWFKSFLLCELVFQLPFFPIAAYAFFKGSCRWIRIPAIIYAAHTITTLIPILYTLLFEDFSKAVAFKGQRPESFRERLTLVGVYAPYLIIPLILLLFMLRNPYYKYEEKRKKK
API: value field is a number in nM; no unit string.

COc1ccc(C)cc1NC(=O)OC1CC2CCCC(C1)N2CCCCCCN (centres unmarked)	7.8

With sigma-2 receptor (Mus musculus, UniProt Q8VD00) as the test system, COc1ccc(C)cc1NC(=O)OC1CC2CCCC(C1)N2CCCCCCCCCCN (centres unmarked) showed IC50 of 18
